Data provenance is patent US8624002B2.

- ASSAY PROCEDURE: Accelerated stability screening monitored by SEC
- Format: physicochemical
- CONDITION NOTES: SEC, 7 days storage at 50° C.
Listed molecules paired with reported Monomer (%)
Numeric only. Scale: %

Below: 4 molecules and their reported Monomer (%).
MOLECULE	Monomer (%)
Hu2B5.9: humanized 2B5-8.0; VH SEQ ID NO 76, VL SEQ ID NO 77 (antibody, V domains shown) VH: EVQLVQSGAEVKKPGASVKVSCKASGYTFTKYWLGWVRQAPGQGLEWMGDIYPGYDYTHYNEKFKDRVTMTTDTSTSTAYMELRSLRSDDTAVYYCARSDGSSTYWGQGTLVTVSS VL: DIVMTQTPLSLPVTPGEPASISCTSSQNIVHSNGNTYLEWYLQKPGQSPQLLIYKVSNRFSGVPDRFSGSGSGTDFTLKISRVEAEDVGVYYCFQVSHVPYTFGGGTKVEIKR	94.6313
Hu2B5.6: humanized 2B5-8.0; VH SEQ ID NO 70, VL SEQ ID NO 71 (antibody, V domains shown) VH: EVQLVQSGAEVKKPGASVKVSCKASGYTFTKYWLGWVRQAPGQGLEWMGDIYPGYDYTHYNEKFKDRVTLTTDTSTSTAYMELSSLRSDDTAVYYCARSDGSSTYWGQGTLVTVSS VL: DVVMTQTPLSLPVTPGEPASISCTSSQNIVHSNGNTYLEWYLQKPGQSPQLLIYKVSNRFSGVPDRFSGSGSGTDFTLKISRVEAEDVGVYYCFQVSHVPYTFGGGTKVEIKR	93.817
Hu2B5.1: humanized 2B5-8.0; VH SEQ ID NO 60, VL SEQ ID NO 61 (antibody, V domains shown) VH: EVQLVQSGAEVKKPGASVKVSCKASGYTFTKYWLGWVRQAPGQGLEWIGDIYPGYDYTHYNEKFKDRATLTVDTSTSTAYMELRSLRSDDTAVYYCARSDGSSTYWGQGTLVTVSS VL: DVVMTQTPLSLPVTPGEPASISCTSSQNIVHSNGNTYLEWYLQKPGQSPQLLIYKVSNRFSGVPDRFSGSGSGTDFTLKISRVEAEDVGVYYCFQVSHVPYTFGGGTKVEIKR	91.0715
Hu2B5.3: humanized 2B5-8.0; VH SEQ ID NO 64, VL SEQ ID NO 65 (antibody, V domains shown) VH: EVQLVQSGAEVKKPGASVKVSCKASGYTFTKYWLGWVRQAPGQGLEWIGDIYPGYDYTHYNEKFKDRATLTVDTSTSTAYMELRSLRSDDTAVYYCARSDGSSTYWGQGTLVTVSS VL: DVLMTQTPLSLPVTPGEPASISCTSSQNIVHSNGNTYLEWYLQKPGQSPQLLIYKVSNRFSGVPDRFSGSGSGTDFTLKISRVEAEDVGVYYCFQVSHVPYTFGGGTKVEIKR	92.3518

Enquiry: Hello, please tell me recorded Monomer (%) for this one: Hu2B5.2: humanized 2B5-8.0; VH SEQ ID NO 62, VL SEQ ID NO 63 (antibody, V domains shown) VH: EVQLVQSGAEVKKPGASVKVSCKASGYTFTKYWLGWVRQAPGQGLEWIGDIYPGYDYTHYNEKFKDRATLTVDTSTSTAYMELSSLRSDDTAVYYCARSDGSSTYWGQGTLVTVSS VL: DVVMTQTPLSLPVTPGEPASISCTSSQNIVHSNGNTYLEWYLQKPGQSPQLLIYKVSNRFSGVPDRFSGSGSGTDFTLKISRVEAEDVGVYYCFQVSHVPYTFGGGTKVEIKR
Return: 93.1491
